assay: reversal of MRP1-mediated doxorubicin resistance, pilot screen, H69AR cells, doxorubicin co-treatment (AID 601); settings: H69AR cells + 2 uM doxorubicin, CellTiter-Glo, 72 h; measured here: viability with 2 uM doxorubicin; at 10 µM; stronger effect = lower value
Kindly supply the reported viability values for the records listed here.
Numbers only, in %.

Check out these entries, answers already filled in.
Cc1nnc(NC(=O)CCC(=O)N2CCC(C)CC2)s1	88.9
CCOC(=O)C1CCCN(CC(=O)NC2CC2)C1 (stereo not given)	89.7
CCC(CC)n1[nH]c(=O)c2c(C)cc(C)nc21	90.5
CC(=O)Nc1ccc(S(=O)(=O)N(C2=NCC(C)S2)c2ccccc2)cc1 (stereo not given)	89.8

Continue with the next compound.
Need viability of CCn1c(C(=O)N2CCCC(C(=O)O)C2)cc2sccc21 (stereo not given) , thanks.
87.4

====

Kindly supply the reported inhibition values for the records listed here.
experiment: 384-well plate pilot, post-Golgi transport modulator project, inhibition of yeast transport mutant growth (AID 636); settings: absorbance 615 nm, about 18 h, stronger effect = higher value
Give bare numbers, in %.

COc1cccc(-n2nnc3c(=O)n(Cc4cccc(F)c4)cnc32)c1	-2.7

For every record below, what is its inhibition?
1. CN(C)CCCN1c2ccccc2Sc2ccc(Cl)cc21
2. Cc1nc(SCC(=O)NCc2ccco2)c2c(C)c(C)sc2n1
3. O=C(CN(Cc1ccc(F)cc1)C(=O)Cn1nnc2ccccc21)NCC1CCCO1 (stereo not given)
4. COc1ccc(Nc2nc(-c3sc(N)nc3C)cs2)cc1
5. Cc1nc(-c2ccc(NC(=O)c3cccs3)cc2)cs1

1: -0.91; 2: -2.86; 3: 0.13; 4: -8.24; 5: 0.13

For every record below, what is its inhibition?
1. O=c1[nH]c(N2CCCCC2)nc2c1CCCC2
2. CCN(CC)CCOC(=O)c1cccc(OC)c1
3. Cc1cccc(NC(=O)CC2CCC2)c1
4. CCCc1ccc(Oc2cn[nH]c2-c2ccc(O)c(C)c2O)cc1

-4.05
-5.07
-5.75
100

For every record below, what is its inhibition?
1. C=CCNC(=O)CNS(=O)(=O)c1ccc(F)cc1
2. O=C(Nc1ccc2c(c1)nc1n2CCN(Cc2ccccc2)C1)c1cccs1
3. N#Cc1c(NC(=O)COC(=O)C2CC3C=CC2C3)oc(-c2ccccc2)c1-c1ccccc1 (stereo not given)
4. COc1ccccc1N(C)S(=O)(=O)c1ccc(C(=O)NC2=NCCS2)cc1
5. Cc1ccn2cc(CCNC(=O)CC(C)(C)C)nc2c1
6. Cn1c(=O)c2ccccc2n(Cc2ccccc2F)c1=O
7. CCOCCn1c(CN2CCC(Cc3ccccc3)CC2)nc2c1c(=O)n(C)c(=O)n2C

-1.45
-5.89
-0.26
0
-4.19
-0.66
-8.22

For every record below, what is its inhibition?
1. COc1ccc(CCNC(=O)CCN2C(=O)C3CC=CCC3C2=O)cc1OC (stereo not given)
2. CCOc1ccc(NC(=O)Cn2nnc(-c3ccccc3F)n2)cc1
3. Cc1ccc(N2C(N)=NC(N)=NC23CCCC3)c(C)c1

-2.08
-4.42
-4.68

====

test: SK-BR-3 cell growth inhibitors, pilot screen, 24 h, human (AID 572); conditions: SK-BR-3 viability, CellTiter-Glo luminescence, at 10 µM, stronger effect = lower value;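 also: compound exposure lasted between 18 and 24 h rather than exactly 24 h; 100% = carrier-treated control wells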
Kindly supply the reported viability values for the records listed here.
Answers are plain numbers, in %.

Check out these entries, answers already filled in.
Cn1c(=O)c(C(=S)NC(=O)C2CC2)c(N)n(Cc2ccccc2)c1=O	70.5
CN(C(=O)C1CCCO1)c1nnc(-c2ccncc2)s1 (stereo not given)	81

For every record below, what is its viability?
1. CCCn1c(SCC(=O)NC(C)(C)C)nnc1C(C)C
2. CC(=O)N1CCN(c2ccc(NC(=O)c3ccc(C(C)(C)C)cc3)cc2)CC1

1: 110; 2: 74.5

For every record below, what is its viability?
1. Cn1c(NC(=O)c2cccc(Cn3cc(Cl)cn3)c2)nc2ccccc21
2. O=C1CCCN1Cc1ncnn1-c1ccccc1
3. COCCN(Cc1cc2cccc(C)c2[nH]c1=O)C(=O)c1ccccc1
4. N#CC1=C(N)N(c2ccccc2)C(c2ccccc2)C1(C#N)C#N (stereo not given)
5. CCCc1nc2ccccc2c(=O)n1NC(=O)c1c(O)c2cccc3c2n(c1=O)CCC3
6. CCOC(=O)c1c2n(c3ccc(O)cc13)CCCCC2

1. 83
2. 89
3. 95
4. 84.5
5. 113
6. 111

For every record below, what is its viability?
1. COc1ccc(CCNc2oc(-c3ccccc3OC)nc2C#N)cc1
2. COC(=O)c1sccc1NC(=O)c1ccco1
3. Cn1c(=O)[nH]c(=O)c2c1nc(CN1CCN(c3cccc(Cl)c3)CC1)n2CCc1ccccc1
4. Nc1ccc(S(=O)(=O)c2cccc(N)c2)cc1
5. N#CCc1nc2c3c4c(sc3ncn2n1)CCCC4

1: 88; 2: 109; 3: 75; 4: 62; 5: 112

For every record below, what is its viability?
1. CCOC(=O)c1c(N)nn(C(=O)C(C)C)c1-c1ccccc1
2. Cc1cc(NC(=O)c2cnn3c(C(F)F)cc(C4CC4)nc23)no1
3. NS(=O)(=O)c1ccc(C(=O)O)cc1
4. N#C[C@@H]1[C@@H]2C(=O)N(c3ccc4c(c3)OCCO4)C(=O)[C@@H]2C2c3ccccc3C=CN21 (stereo not given in full)

[97, 131, 92, 84.5]
